Where do the numbers come from? From PubChem BioAssay AID624330.

Target: Rac GTPase-activating protein 1 (Homo sapiens) (UniProt Q9H0H5)
Sequence (Q9H0H5 whole entry, looked up): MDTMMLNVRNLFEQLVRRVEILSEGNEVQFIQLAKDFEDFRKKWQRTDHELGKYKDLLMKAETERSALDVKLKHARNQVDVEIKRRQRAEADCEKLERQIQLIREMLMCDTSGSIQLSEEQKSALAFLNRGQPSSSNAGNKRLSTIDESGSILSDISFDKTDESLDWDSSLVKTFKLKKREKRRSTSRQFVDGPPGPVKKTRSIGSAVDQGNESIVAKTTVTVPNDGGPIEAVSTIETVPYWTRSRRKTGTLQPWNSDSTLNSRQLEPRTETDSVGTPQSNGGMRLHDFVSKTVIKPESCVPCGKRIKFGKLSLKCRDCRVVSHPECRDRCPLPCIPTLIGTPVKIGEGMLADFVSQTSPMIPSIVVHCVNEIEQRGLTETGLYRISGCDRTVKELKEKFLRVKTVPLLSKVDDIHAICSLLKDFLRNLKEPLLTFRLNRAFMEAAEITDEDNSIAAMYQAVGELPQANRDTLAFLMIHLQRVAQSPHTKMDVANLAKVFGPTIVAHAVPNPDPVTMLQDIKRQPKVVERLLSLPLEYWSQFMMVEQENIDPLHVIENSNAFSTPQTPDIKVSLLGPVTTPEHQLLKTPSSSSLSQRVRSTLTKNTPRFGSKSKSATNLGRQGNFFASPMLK
Assay: blockers of MgcRacGAP-driven Rac1 GTP hydrolysis – biochemical, ADP Hunter fluorescence, primary and confirmatory, confirmation (AID 624330);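 further: fluorescence reports GDP produced by GAP-driven GTP hydrolysis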
Details: MgcRacGAP-stimulated Rac1 GTP hydrolysis, at 30 µM, stronger effect = higher value, GST-tagged Rac1 F28L mutant substrate
The campaign covered roughly 340,000 compounds. About 2,100 (0.62%) were called active. Only a sample is shown. Measured potencies and affinities stand elsewhere.
Provide the recorded inhibition for the entries that follow.
Dear colleague, please return just the value in %, with no unit written.

## Input API: value(readout=inhibition, system=Rac GTPase-activating protein 1 (Homo sapiens) (UniProt Q9H0H5)) for record N#Cc1ccsc1NC(=O)CCN1C(=O)C2CCCCC2C1=O (centres undefined)
## Output -1.49

## Input API: value(readout=inhibition, system=Rac GTPase-activating protein 1 (Homo sapiens) (UniProt Q9H0H5)) for record `CCOc1ccccc1C(=O)NCC(=O)NCC(C)(C)N1CCOCC1`
## Output 3.54

## Input API: value(readout=inhibition, system=Rac GTPase-activating protein 1 (Homo sapiens) (UniProt Q9H0H5)) for record `CCCc1ccc2c(N)c(C#N)sc2n1`
## Output 1.65

## Input API: value(readout=inhibition, system=Rac GTPase-activating protein 1 (Homo sapiens) (UniProt Q9H0H5)) for record `O=C(O)c1ccc(C(=O)O)c(C(=O)c2ccc(NC(=O)c3ccccc3)cc2)c1`
## Output 8.04

## Input API: value(readout=inhibition, system=Rac GTPase-activating protein 1 (Homo sapiens) (UniProt Q9H0H5)) for record `O=C(OCC(=O)N1CCc2ccccc21)c1ccncc1`
## Output 3.21

## Input API: value(readout=inhibition, system=Rac GTPase-activating protein 1 (Homo sapiens) (UniProt Q9H0H5)) for record `O=C(c1ccccc1)c1ccc(N2CCOCC2)c(F)c1`
## Output 9.91

## Input API: value(readout=inhibition, system=Rac GTPase-activating protein 1 (Homo sapiens) (UniProt Q9H0H5)) for record `CNc1nnc(-c2ccncc2)s1`
## Output 6.68

## Input API: value(readout=inhibition, system=Rac GTPase-activating protein 1 (Homo sapiens) (UniProt Q9H0H5)) for record `CCN(c1ccccc1)S(=O)(=O)c1ccc(Cl)c(NC(=O)CN2CCCCCC2)c1`
## Output 29.2

## Input API: value(readout=inhibition, system=Rac GTPase-activating protein 1 (Homo sapiens) (UniProt Q9H0H5)) for record `CNc1nnc(-c2cccc(N(C)C)c2)s1`
## Output 4.36

## Input API: value(readout=inhibition, system=Rac GTPase-activating protein 1 (Homo sapiens) (UniProt Q9H0H5)) for record `CCOc1ccc2nc(-c3ccc(OC)c(OC)c3)cc(C(=O)O)c2c1`
## Output 11.1

## Input API: value(readout=inhibition, system=Rac GTPase-activating protein 1 (Homo sapiens) (UniProt Q9H0H5)) for record `O=C(Nc1cccc(NS(=O)(=O)c2ccc(S(=O)(=O)NC3CC3)cc2)c1)c1ccccn1`
## Output 11.8

## Input API: value(readout=inhibition, system=Rac GTPase-activating protein 1 (Homo sapiens) (UniProt Q9H0H5)) for record O=C(O)C1CC(c2ccc(F)cc2)=NO1 (centres undefined)
## Output 1.2

## Input API: value(readout=inhibition, system=Rac GTPase-activating protein 1 (Homo sapiens) (UniProt Q9H0H5)) for record `O=C(NNc1ccccc1[N+](=O)[O-])NC1CCCCC1`
## Output 2.65

## Input API: value(readout=inhibition, system=Rac GTPase-activating protein 1 (Homo sapiens) (UniProt Q9H0H5)) for record `Cc1ccc(C)c(NC(=O)COC(=O)CCC(=O)c2cccs2)c1`
## Output -3.89

## Input API: value(readout=inhibition, system=Rac GTPase-activating protein 1 (Homo sapiens) (UniProt Q9H0H5)) for record `COCCn1c(CN2CCc3ccccc3C2)nc2c1c(=O)n(C)c(=O)n2C`
## Output 7.99

## Input API: value(readout=inhibition, system=Rac GTPase-activating protein 1 (Homo sapiens) (UniProt Q9H0H5)) for record `Cc1cc(C)n(-c2cc(C)c(C)cc2Br)n1`
## Output 4.26

## Input API: value(readout=inhibition, system=Rac GTPase-activating protein 1 (Homo sapiens) (UniProt Q9H0H5)) for record `CCN(c1ccccc1)S(=O)(=O)c1ccc(Cl)c(NC(=O)CN2CCN(C)CC2)c1`
## Output -0.66

## Input API: value(readout=inhibition, system=Rac GTPase-activating protein 1 (Homo sapiens) (UniProt Q9H0H5)) for record `O=C(O)CCCN1C(=O)c2ccc(Oc3cccc([N+](=O)[O-])c3)cc2C1=O`
## Output 1.11

## Input API: value(readout=inhibition, system=Rac GTPase-activating protein 1 (Homo sapiens) (UniProt Q9H0H5)) for record `CC1(C)N=C(SCC(=O)Nc2ccc(Cl)cc2)C(c2ccc(Cl)cc2)=N1`
## Output 2.66

## Input API: value(readout=inhibition, system=Rac GTPase-activating protein 1 (Homo sapiens) (UniProt Q9H0H5)) for record `Cc1ccc(Cl)cc1N1CCN(C(=O)Cn2ccc3ccccc3c2=O)CC1`
## Output 4.81

## Input API: value(readout=inhibition, system=Rac GTPase-activating protein 1 (Homo sapiens) (UniProt Q9H0H5)) for record `Cc1ccc(S(=O)(=O)CCC(=O)Nc2nc(-c3cccnc3)cs2)cc1`
## Output -10.2

## Input API: value(readout=inhibition, system=Rac GTPase-activating protein 1 (Homo sapiens) (UniProt Q9H0H5)) for record `COc1cc(-c2cc(C(=O)O)c3cc4ccccc4cc3n2)cc(OC)c1OC`
## Output 11.4

## Input API: value(readout=inhibition, system=Rac GTPase-activating protein 1 (Homo sapiens) (UniProt Q9H0H5)) for record `COc1ccc(-c2cc(C(=O)Nc3ccc(S(N)(=O)=O)cc3)c3ccccc3n2)cc1OC`
## Output -3.78

## Input API: value(readout=inhibition, system=Rac GTPase-activating protein 1 (Homo sapiens) (UniProt Q9H0H5)) for record CC1=C(C(=O)NCCc2ccc(C)cc2)C2(CCC(C)CC2)OC1=O (centres undefined)
## Output 7.59

## Input API: value(readout=inhibition, system=Rac GTPase-activating protein 1 (Homo sapiens) (UniProt Q9H0H5)) for record `Clc1cccc(-c2ccc(C=Nc3ccc(N4CCOCC4)cc3)o2)c1`
## Output 23.7

## Input API: value(readout=inhibition, system=Rac GTPase-activating protein 1 (Homo sapiens) (UniProt Q9H0H5)) for record `N#Cc1nnn2c1nc(N)c1c(F)cccc12`
## Output 2.66

## Input API: value(readout=inhibition, system=Rac GTPase-activating protein 1 (Homo sapiens) (UniProt Q9H0H5)) for record `Cc1ccccc1NC(=O)c1c(C)nn(-c2ccccc2)c1Cl`
## Output 8.16

## Input API: value(readout=inhibition, system=Rac GTPase-activating protein 1 (Homo sapiens) (UniProt Q9H0H5)) for record `CC(=O)c1ccc(NC(=O)CSc2nnc(C3CC3)n2C)cc1`
## Output -6.69

## Input API: value(readout=inhibition, system=Rac GTPase-activating protein 1 (Homo sapiens) (UniProt Q9H0H5)) for record `CCN(CC)CCCN(C(=O)c1ccccc1F)c1nc(-c2ccc(OC)cc2)cs1`
## Output 13.2

## Input API: value(readout=inhibition, system=Rac GTPase-activating protein 1 (Homo sapiens) (UniProt Q9H0H5)) for record `COc1ccc(-c2cc(C(=O)Nc3ccc(C(N)=O)cc3)c3ccccc3n2)cc1OC`
## Output 12.9

## Input API: value(readout=inhibition, system=Rac GTPase-activating protein 1 (Homo sapiens) (UniProt Q9H0H5)) for record `N#Cc1c2ccc(OCC(=O)NCc3ccco3)cc2n2ccccc12`
## Output 8.65

## Input API: value(readout=inhibition, system=Rac GTPase-activating protein 1 (Homo sapiens) (UniProt Q9H0H5)) for record `CCOC(=O)N1CCN(C(=O)c2cccc(S(=O)(=O)Nc3ccc(F)cc3)c2)CC1`
## Output 4.83

## Input API: value(readout=inhibition, system=Rac GTPase-activating protein 1 (Homo sapiens) (UniProt Q9H0H5)) for record `COc1ccccc1OCC(=O)Nc1cc(C(F)(F)F)ccc1-n1cncn1`
## Output 0.07

## Input API: value(readout=inhibition, system=Rac GTPase-activating protein 1 (Homo sapiens) (UniProt Q9H0H5)) for record `CCCc1c(C(=O)N/N=C/c2ccc3c(c2)OCO3)nnn1-c1nonc1N`
## Output 3.5

## Input API: value(readout=inhibition, system=Rac GTPase-activating protein 1 (Homo sapiens) (UniProt Q9H0H5)) for record COCCCNC(=O)C1CCC(CNS(=O)(=O)c2ccc(Cl)cc2)CC1 (centres undefined)
## Output -9.18

## Input API: value(readout=inhibition, system=Rac GTPase-activating protein 1 (Homo sapiens) (UniProt Q9H0H5)) for record `O=C(Nc1ccc(C(=O)O)cc1)/C(=C\c1ccc2c(c1)OCO2)NC(=O)c1ccccc1`
## Output -1.61

## Input API: value(readout=inhibition, system=Rac GTPase-activating protein 1 (Homo sapiens) (UniProt Q9H0H5)) for record `O=C(/C=C/c1ccc2c(c1)OCO2)NCCS(=O)(=O)N1CCN(c2ccccc2)CC1`
## Output -2.85

## Input API: value(readout=inhibition, system=Rac GTPase-activating protein 1 (Homo sapiens) (UniProt Q9H0H5)) for record `CCOc1cc(/C=N/n2nnnc2N)ccc1OCc1c(C)no[n+]1[O-]`
## Output 7.97

## Input API: value(readout=inhibition, system=Rac GTPase-activating protein 1 (Homo sapiens) (UniProt Q9H0H5)) for record `Cc1cc(C)n2c(SCC(=O)N(CC(C)C)c3c(N)n(CC(C)C)c(=O)[nH]c3=O)nnc2n1`
## Output 5.05

## Input API: value(readout=inhibition, system=Rac GTPase-activating protein 1 (Homo sapiens) (UniProt Q9H0H5)) for record CC(C)c1[nH]nc2c1C(c1cccs1)C(C#N)=C(N)O2 (centres undefined)
## Output 8.28

## Input API: value(readout=inhibition, system=Rac GTPase-activating protein 1 (Homo sapiens) (UniProt Q9H0H5)) for record `COCc1cc(C)n(CC(=O)Nc2ccc(N3CCOCC3)cc2)c(=O)c1C#N`
## Output 1.03

## Input API: value(readout=inhibition, system=Rac GTPase-activating protein 1 (Homo sapiens) (UniProt Q9H0H5)) for record `O=C(CN1CCOCC1)N/N=C/c1ccc(-c2cccc(Cl)c2Cl)o1`
## Output 7.09

## Input API: value(readout=inhibition, system=Rac GTPase-activating protein 1 (Homo sapiens) (UniProt Q9H0H5)) for record COc1ccccc1-c1nnc(SCC(=O)NC2CCS(=O)(=O)C2)n1N (centres undefined)
## Output 8.87

## Input API: value(readout=inhibition, system=Rac GTPase-activating protein 1 (Homo sapiens) (UniProt Q9H0H5)) for record `Clc1ccc(-c2ccc(C=Nc3ccc(N4CCOCC4)cc3)o2)cc1`
## Output 25.6
